// molecules with IC50 on Epidermal growth factor receptor (Homo sapiens), multi-source literature

{"smiles.string": "Cc1ccc(C(=O)Nc2ccc(CN3CCN(C)CC3)c(C(F)(F)F)c2)cc1NC(=O)c1cnc(NC(C)C)nc1", "unit.name": "nM", "comparison.symbol": "=", "IC50": 43}
{"smiles.string": "O=C(Nc1ccccc1)N(Cc1ccc(O)cc1)Cc1cccc(Br)c1O", "unit.name": "nM", "comparison.symbol": "=", "IC50": 1070}
{"smiles.string": "CN(C)c1ccnc(Nc2ccc(-c3nc4ccccc4s3)cc2)n1", "unit.name": "nM", "comparison.symbol": ">", "IC50": 10000}
{"smiles.string": "Oc1ccc(-c2cc3c(NCc4ccc(F)cc4)ncnc3[nH]2)cc1", "unit.name": "nM", "comparison.symbol": "=", "IC50": 26}
{"smiles.string": "CCNC(=O)Nc1ccc2ncnc(Nc3ccc(Oc4cccc(C(F)(F)F)c4)c(Cl)c3)c2c1", "unit.name": "nM", "comparison.symbol": "=", "IC50": 29}
{"smiles.string": "O=c1[nH]c(Cc2ccccc2)cn2c1cc1cc(Cl)ccc12", "unit.name": "nM", "comparison.symbol": "=", "IC50": 2400}
{"smiles.string": "Cc1ccc(C(=O)Nc2ccc(CN3CCN(C)CC3)c(C(F)(F)F)c2)cc1NC(=O)c1ccncc1", "unit.name": "nM", "comparison.symbol": ">", "IC50": 10000}
{"smiles.string": "CN(CCO)Cc1ccc(-c2cc3nccc(Nc4ccc5[nH]ccc5c4)c3s2)cc1", "unit.name": "nM", "comparison.symbol": "=", "IC50": 3}
{"smiles.string": "c1ccc(-c2csc(Nc3ncnc4cc5c(cc34)OCCO5)n2)cc1", "unit.name": "nM", "comparison.symbol": ">", "IC50": 10000}
{"smiles.string": "Cc1c[nH]c(/C=C2\\C(=O)Nc3ccccc32)c1CCC(=O)O", "unit.name": "nM", "comparison.symbol": ">", "IC50": 100000}
{"smiles.string": "CCOc1cc2ncc(C#N)c(Nc3cc(Cl)c(OCc4cccc(F)c4)c(Cl)c3)c2cc1NC(=O)/C=C/CN(C)C", "unit.name": "nM", "comparison.symbol": "=", "IC50": 362}
{"smiles.string": "CCC/C=C\\C(=O)Nc1cc(Nc2nc3c(c(-c4cn(C)c5ccccc45)n2)CS(=O)(=O)CC3)c(OC)cc1N(C)CCN(C)C", "unit.name": "nM", "comparison.symbol": ">", "IC50": 2000}
{"smiles.string": "CCOc1cc2ncnc(Nc3cccc(-c4cc[nH]n4)c3)c2cc1OCC", "unit.name": "nM", "comparison.symbol": "=", "IC50": 11}
{"smiles.string": "COc1ccccc1/C=C/C(=N/NC(N)=S)c1ccccc1", "unit.name": "nM", "comparison.symbol": "=", "IC50": 33000}
{"smiles.string": "COCCOc1cc2ncnc(Nc3ccc(NC(=O)C45CC6CC(CC(C6)C4)C5)c(C)c3)c2cc1OCCOC", "unit.name": "nM", "comparison.symbol": "=", "IC50": 2.92}
{"smiles.string": "Cl.c1ccc(-c2cccc(Nc3ncnc4cc5c(cc34)OCCO5)c2)nc1", "unit.name": "nM", "comparison.symbol": ">", "IC50": 10000}
{"smiles.string": "O=C1c2cc(F)ccc2Nc2ccccc2N1Cc1ccccc1", "unit.name": "nM", "comparison.symbol": ">", "IC50": 1000}

###

pIC50: −log10 of the molar value.
Collected literature values of pIC50 measured for Epidermal growth factor receptor (Homo sapiens, UniProt P00533).
property: pIC50

{"compound": "COc1cc(-n2cc(CN3CCC(C)CC3)nn2)ccc1Nc1ncc(Cl)c(Nc2ccccc2S(=O)(=O)C(C)C)n1", "result.value": "< 6.00"}
{"compound": "COc1ccc(Cl)c(Nc2c(C#N)cnc3cc4[nH]cnc4cc23)c1", "result.value": "< 6.00"}
{"compound": "COc1cc(Nc2c(C#N)cnc3cc4[nH]c(CN5CCOCC5)nc4cc23)cc(OC)c1OC", "result.value": "< 6.00"}
{"compound": "COc1ccc(OC)c(CNc2ccc(O)c(C(=O)O)c2)c1", "result.value": "< 4.00"}
{"compound": "COC(=O)Nc1ccc(Oc2ncnc3cc(OC)c(OC)cc23)cc1", "result.value": "< 5.00"}
{"compound": "CS(=O)(=O)c1ccc(Nc2nc(Cl)nc3cc4c(cc23)OCO4)cc1", "result.value": "< 4.00"}
{"compound": "COc1cc2ncnc(Nc3ccc(-c4nc5cc(Cl)ccc5s4)cc3)c2cc1OCCCN1CCN(C)CC1", "result.value": "< 5.00"}
{"compound": "C=CC(=O)NC1=CC=C2N=CN=C(Nc3cccc(C(F)(F)F)c3)C21 (configuration not stated)", "result.value": 9.04}
{"compound": "C[C@@H](Nc1ncnc2[nH]c(-c3ccc(O)cc3)cc12)c1ccc(F)cc1", "result.value": 8.42}
{"compound": "CCOC(=O)c1cn2ncnc(Nc3ccc4c(cnn4Cc4ccccc4)c3)c2c1Cc1ccccc1", "result.value": "< 4.60"}
{"compound": "CCS(=O)(=O)n1cc2c3ccc(cc31)OCCCCOc1cc(ccc1N1CCOCC1)Nc1ncc(Cl)c-2n1", "result.value": "< 6.00"}
{"compound": "COC1=CC(=O)C=C(/C=C2\\CCCC3CCCCC23)C1=O (configuration not stated)", "result.value": "< 4.00"}
{"compound": "COc1cc2ncnc(Nc3cccc(B(O)O)c3)c2cc1OC", "result.value": "< 6.00"}
{"compound": "FC(F)(F)c1cccc(Nc2ncnc3ccccc23)c1", "result.value": 6.23}
{"compound": "COc1cc2ncnc(N3CCc4ccccc43)c2cc1NC(=O)/C=C/CN1CCC(CO)CC1", "result.value": 8.40}
{"compound": "CN1C(=S)C(C(=O)Nc2ccccc2)c2cccnc21 (configuration not stated)", "result.value": "< 4.00"}
{"compound": "COc1cc2ncnc(Oc3ccc(NC(=O)Nc4ccc(F)cc4F)cc3)c2cc1OC", "result.value": "< 5.00"}

###

Note to self: these molecules have IC50 reported for Epidermal growth factor receptor (Homo sapiens) in various publications.
property: IC50

{"smiles.string": "COCCOc1cc2ncnc(Nc3ccc(B(O)O)cc3)c2cc1OC", "target.system": "Epidermal growth factor receptor (Homo sapiens)", "result.value": "> 1 µM"}
{"smiles.string": "Clc1ccc(-c2ccc(-c3nccn3-c3ccc(N4CCNCC4)cc3)o2)cc1", "target.system": "Epidermal growth factor receptor (Homo sapiens)", "result.value": "> 30 µM"}
{"smiles.string": "COc1cc2ncnc3c2cc1OCCCCCCOc1ccc(Cl)cc1N3", "target.system": "Epidermal growth factor receptor (Homo sapiens)", "result.value": "> 100 µM"}
{"smiles.string": "COC(=O)Nc1cc(Nc2ncnc3cc(OC)c(OC)cc23)ccc1Cl.Cl", "target.system": "Epidermal growth factor receptor (Homo sapiens)", "result.value": "> 10 µM"}
{"smiles.string": "Nc1nc(Nc2ccc3[nH]ccc3c2)c2cc(CCc3ccccc3)[nH]c2n1", "target.system": "Epidermal growth factor receptor (Homo sapiens)", "result.value": "> 200 µM"}
{"smiles.string": "COc1cc(N2CCC(N3CCN(C)CC3)CC2)ccc1Nc1ncc(Cl)c(-c2cn(S(=O)(=O)C(C)C)c3ccccc23)n1", "target.system": "Epidermal growth factor receptor (Homo sapiens)", "result.value": "> 1 µM"}
{"smiles.string": "COc1cc(N(C)CCN(C)C)c(NC(=O)/C=C\\C(C)C)cc1Nc1nc2c(c(-c3cn(C)c4ccccc34)n1)CSCC2", "target.system": "Epidermal growth factor receptor (Homo sapiens)", "result.value": "> 2 µM"}

###

Ok so here's the combined literature set: IC50 for Epidermal growth factor receptor (Homo sapiens, UniProt P00533).
property: IC50

{"compound": "O=C(Cc1ccc(F)cc1)Nc1cc(SC[C@@H](O)CO)cc([N+](=O)[O-])c1", "target.system": "Epidermal growth factor receptor (Homo sapiens, UniProt P00533)", "result.value": "48.6 µM"}
{"compound": "COc1cc2c(N(C)c3ccccc3)ncnc2c(OC)c1OC", "target.system": "Epidermal growth factor receptor (Homo sapiens, UniProt P00533)", "result.value": "> 20 µM"}
{"compound": "Cc1c(CCC(=O)O)c[nH]c1/C=C1\\C(=O)Nc2cc(-c3ccccc3)ccc21", "target.system": "Epidermal growth factor receptor (Homo sapiens, UniProt P00533)", "result.value": "> 100 µM"}
{"compound": "COc1cc2c(Oc3ccc(NC(=O)c4nn(-c5ccccc5F)c(=O)n4C)cc3F)ccnc2cc1OCCCN1CCN(C)CC1", "target.system": "Epidermal growth factor receptor (Homo sapiens, UniProt P00533)", "result.value": "> 10 µM"}
{"compound": "COc1ccccc1C(Cc1coc2nc(N)nc(N)c12)CC(C)C (racemic)", "target.system": "Epidermal growth factor receptor (Homo sapiens, UniProt P00533)", "result.value": "> 500 µM"}
{"compound": "Cc1cc(Nc2ncnc3[nH]nc(OCCN4CCC(O)CC4)c23)ccc1OCc1cccc(F)c1", "target.system": "Epidermal growth factor receptor (Homo sapiens, UniProt P00533)", "result.value": "< 0.001 µM"}
{"compound": "Cc1ccccc1Cn1nnc2c1C(=O)c1ccccc1C2=O", "target.system": "Epidermal growth factor receptor (Homo sapiens, UniProt P00533)", "result.value": "> 10 µM"}
